So I've got a bunch of binders here, and I need their EC50 (cAMP induction) values.
target: human glucagon-like peptide 1 receptor (human) (UniProt P43220); assay: cell-based or functional assay
Sequence (P43220 24-463): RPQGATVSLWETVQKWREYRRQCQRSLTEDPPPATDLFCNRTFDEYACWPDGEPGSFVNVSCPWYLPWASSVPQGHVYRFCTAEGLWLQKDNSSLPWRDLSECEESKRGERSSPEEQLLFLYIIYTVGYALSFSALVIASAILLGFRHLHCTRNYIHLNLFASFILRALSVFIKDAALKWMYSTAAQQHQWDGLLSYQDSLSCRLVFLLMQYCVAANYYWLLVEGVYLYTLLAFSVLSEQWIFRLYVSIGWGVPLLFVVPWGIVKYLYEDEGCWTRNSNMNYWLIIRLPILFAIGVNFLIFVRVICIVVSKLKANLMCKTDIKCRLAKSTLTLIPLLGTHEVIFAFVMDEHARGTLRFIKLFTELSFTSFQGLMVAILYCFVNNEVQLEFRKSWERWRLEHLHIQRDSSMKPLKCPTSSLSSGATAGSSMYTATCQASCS
Numbered stars: 1 amine (or outer) side, 2 acyl side, 3 side chain; on linkers, the order of the positions; unused ones are H or OH. Square brackets hold non-standard residues; d marks the D form. Side chains are listed from the residue outwards. * marks the point of attachment. C18 diacid = O=C(O)CCCCCCCCCCCCCCCCC(=O)*; γGlu = O=C(O)[C@H](CCC(=O)[*:2])N[*:1]; Stearoyl = CCCCCCCCCCCCCCCCCC(=O)*; Aib = CC(C)(N)C(=O)O
Please answer in the form of a number followed by its unit of measurement.

I would be grateful if you could share the reported EC50 (cAMP induction) for H-Y[Aib]QGTFTSDYSIYLEKK([Peg3-Peg3-γGlu-C18 diacid])AQRAFVEWLLRA-NH2 [Compound 51] .
0.026 nM

I would be grateful if you could share the reported EC50 (cAMP induction) for YXQGTFTSDYSIALDKKAQRAFVNWLVAXKPSSGAPPPS (X at 2 and 29 = Aib; Lys 17 as K(Octadecanoyl-Dapa-Peg3-Peg3); C-terminal amide (-NH2)) [Compound 43] .
0.014 nM

I would be grateful if you could share the reported EC50 (cAMP induction) for H-Y[Aib]QGTFTSDLSIALEKK([Peg3-Peg3-γGlu-Stearoyl])AQRAFVEWLLAQK-NH2 [Compound 48] .
0.013 nM

I would be grateful if you could share the reported EC50 (cAMP induction) for YXQGTFTSDYSIALDKKAQRAFVNWLVAXKPSSGAPPPS (X at 2 and 29 = Aib; Lys 17 as K(Octadecanoyl-isoGlu-Peg3-Peg3); C-terminal amide (-NH2)) [Compound 42] .
0.036 nM
